Target: NR2B receptor (Rattus norvegicus, UniProt P35439+Q00960)
Construct: NMDA, Polyamine source: Wistar Rat cerebral cortex
Sequence (Q00960 27-1482, other chains not shown): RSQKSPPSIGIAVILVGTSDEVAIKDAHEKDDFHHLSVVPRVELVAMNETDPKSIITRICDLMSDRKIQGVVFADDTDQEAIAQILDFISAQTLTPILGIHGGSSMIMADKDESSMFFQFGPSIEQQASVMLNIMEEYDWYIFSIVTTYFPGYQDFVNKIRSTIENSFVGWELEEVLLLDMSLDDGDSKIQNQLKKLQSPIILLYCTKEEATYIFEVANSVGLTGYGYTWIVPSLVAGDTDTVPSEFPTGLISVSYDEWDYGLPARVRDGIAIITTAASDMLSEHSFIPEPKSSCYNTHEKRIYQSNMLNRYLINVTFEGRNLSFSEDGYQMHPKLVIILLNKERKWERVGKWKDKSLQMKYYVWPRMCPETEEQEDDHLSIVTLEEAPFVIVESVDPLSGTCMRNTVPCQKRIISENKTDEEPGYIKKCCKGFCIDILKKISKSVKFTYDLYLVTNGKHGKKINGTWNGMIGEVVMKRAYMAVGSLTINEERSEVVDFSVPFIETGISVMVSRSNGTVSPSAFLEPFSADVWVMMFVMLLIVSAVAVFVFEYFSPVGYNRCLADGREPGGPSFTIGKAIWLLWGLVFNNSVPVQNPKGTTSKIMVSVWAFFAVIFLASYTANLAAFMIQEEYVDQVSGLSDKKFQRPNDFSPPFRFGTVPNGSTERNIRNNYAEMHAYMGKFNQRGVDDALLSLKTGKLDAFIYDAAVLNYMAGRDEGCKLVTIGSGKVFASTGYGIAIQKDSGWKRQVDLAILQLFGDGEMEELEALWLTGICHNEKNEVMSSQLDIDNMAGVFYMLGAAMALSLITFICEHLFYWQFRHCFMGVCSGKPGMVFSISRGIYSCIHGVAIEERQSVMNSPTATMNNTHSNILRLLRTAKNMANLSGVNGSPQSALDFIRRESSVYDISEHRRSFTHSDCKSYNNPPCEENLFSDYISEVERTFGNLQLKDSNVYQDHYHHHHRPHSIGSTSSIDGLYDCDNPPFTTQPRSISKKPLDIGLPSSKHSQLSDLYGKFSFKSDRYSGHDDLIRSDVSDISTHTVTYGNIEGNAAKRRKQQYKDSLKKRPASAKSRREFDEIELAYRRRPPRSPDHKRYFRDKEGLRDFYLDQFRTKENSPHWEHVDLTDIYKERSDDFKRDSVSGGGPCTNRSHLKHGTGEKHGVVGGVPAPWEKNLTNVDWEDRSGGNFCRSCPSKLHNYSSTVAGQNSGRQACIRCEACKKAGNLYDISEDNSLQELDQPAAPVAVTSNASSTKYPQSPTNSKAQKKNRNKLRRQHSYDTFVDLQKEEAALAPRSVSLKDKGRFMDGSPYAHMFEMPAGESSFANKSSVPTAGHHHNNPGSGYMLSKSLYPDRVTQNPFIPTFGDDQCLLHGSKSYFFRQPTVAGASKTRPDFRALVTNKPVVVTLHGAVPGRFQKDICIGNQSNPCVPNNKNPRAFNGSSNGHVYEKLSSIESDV
Test: In vitro affinity measurement, [^3H]Ifenprodil radioligand binding (NMDA, Polyamine)
Conditions: Wistar Rat cerebral cortex; ligand [^3H]Ifenprodil; 2 hours at 4° C.; six concentrations tested in duplicate
reportedProperty: Ki

Incoming: Item COc1ccc(Br)cc1CNC(=N)c1ccc(OC(F)(F)F)cc1 has what recorded Ki?
Outgoing: < 2 nM

Incoming: Proceed to COc1ccccc1CNC(=N)c1ccc(I)cc1
Outgoing: < 11 nM

Incoming: Proceed to COc1ccc(Cl)cc1CNC(=N)c1ccc(OC(F)(F)F)cc1
Outgoing: < 2 nM
